Entry source: patent US20250376535A1

biological target: T1, EGFR Fc (human, UniProt P00533 25-645); assay: ELISA, EGFR Fc coated
T1 construct: also called EGFR-hFc; recombinant human EGFR-Fc
pEC50: −log10 of the molar value.
Classify by measured pEC50: Satisfied if it is equal to or exceeds 10, Not satisfied if it is smaller.

Answered cases to consult:
binder	assigned-category
pgEG-SX9 (VHH, not shown: small tags and cut ends) VHH: QVQLVESGGGLVQAGGSLRLSCAASVSGSALSNMAWYRQRPGNQRELVAHITFDNFTNYADSVKGRFTISRDNVKNTVDLQMSSLKPEDTAVYYCNARHFFGDNYWGKGTLVTVSS	Satisfied
pgEG5 (VHH, not shown: small tags and cut ends) VHH: QVQLVESGGGLVQPGGSLRLSCTASHNIFSDNAMAWSRQAPGAQRELVARIATGGNTYYPDSVKGRFTISRDNAKNTVYLQMNNLTPDDTAVYYCYAERWTGLEYSRTYWGQGTQVTVSS	Not satisfied
pgEG-SX22 (VHH, not shown: small tags and cut ends) VHH: QVQLVESGGGLVQAGGSLRVSCAVSGGALSAYAMAWFRQAPGKEREFVAGLNWGGDETYYADSAKGRFTISKDNAKNTVSLQMNSLEPEDTAVYYCGGRPGPLLSRATGYKYWGQGTQVTVSS	Satisfied
pgEG-SX56 (VHH, not shown: small tags and cut ends) VHH: QVQLVESGGGFVQAGGSLRLSCAASGRFLSIADMDWYRRVPGKQRELVASITRAGDTALEDSVKGRFTISRDNAKNTVHLQMNSVKPEDTAVYYCRADVTRSGTPYFEVWGQGTLVTVSS	Satisfied

Identify whether the reported pEC50 of the following binder is 10 or greater: pgEG-SX57 (VHH, not shown: small tags and cut ends) VHH: QVQLVESGGGLVQAGGSLRLSCAGARSIFSIKPMTWYRQAPGKERELVAWFTSGDSPNYADSVKGRFTISRDSAKNTVYLQMNNLKPEDTAVYYCNAVPPLGRWGQGTLVTVSS
Satisfied

Identify whether the reported pEC50 of the following binder is 10 or greater: pgEG-SX20 (VHH, not shown: small tags and cut ends) VHH: QVQLVESGGGLVQAGGSLRLSCAGARSAFSIKPMTWYRQAPGKERELVAYFNSGGSTNYADSVKGRFTISRDNAKNTMYLQMNNLKPEDTAVYYCNAIPPLGSWGQGTQVTVSS
Satisfied
